test system: A. baumannii ATCC 19 606; settings: ATCC 19
Square brackets hold non-standard residues; d marks the D form. Peptide text beside a SMILES is read from it. Nspe(4-Br) = C[C@H](NCC(=O)O)c1ccc(Br)cc1; N(tridecyl)Gly = CCCCCCCCCCCCCNCC(=O)O; Nspe = C[C@H](NCC(=O)O)c1ccccc1; NDecylGly = CCCCCCCCCCNCC(=O)O; Nlys = NCCCCNCC(=O)O
Reported MIC of peptidomimetics values for the following compounds.
Field: numeric (µM). Do not append units.

// known answers, use as guide
compound | metric name | unit symbol | measured value
CCCCCCCCCCCCCNCC(=O)N(CCCCN)CC(=O)N(CC(=O)N(CC(=O)N(CCCCN)CC(=O)N(CCCCN)CC(N)=O)[C@@H](C)c1ccccc1)[C@@H](C)c1ccccc1 [TM15] (H-[N(tridecyl)Gly][Nlys][Nspe][Nspe][Nlys][Nlys]-NH2) | MIC of peptidomimetics | µM | 64.9
C[C@@H](c1ccc(Br)cc1)N(CC(=O)N(CCCCN)CC(=O)N(CC(=O)N(CC(=O)N(CCCCN)CC(N)=O)[C@@H](C)c1ccc(Br)cc1)[C@@H](C)c1ccccc1)C(=O)CN(C(=O)CNCCCCN)[C@@H](C)c1ccccc1 [TM12] (H-[Nlys][Nspe][Nspe(4-Br)][Nlys][Nspe][Nspe(4-Br)][Nlys]-NH2) | MIC of peptidomimetics | µM | 103.8
C[C@@H](c1ccc(Br)cc1)N(CC(=O)N(CCCCN)CC(=O)N(CC(=O)N(CC(=O)N(CCCCN)CC(N)=O)[C@@H](C)c1ccc(Br)cc1)[C@@H](C)c1ccc(Br)cc1)C(=O)CN(C(=O)CNCCCCN)[C@@H](C)c1ccc(Br)cc1 [TM14] (H-[Nlys][Nspe(4-Br)][Nspe(4-Br)][Nlys][Nspe(4-Br)][Nspe(4-Br)][Nlys]-NH2) | MIC of peptidomimetics | µM | 23.0

Q: What value of MIC of peptidomimetics has been recorded for this entry: CCCCCCCCCCNCC(=O)N(CCCCN)CC(=O)N(CC(=O)N(CC(=O)N(CCCCN)CC(=O)N(CC(=O)N(CC(N)=O)[C@@H](C)c1ccccc1)[C@@H](C)c1ccccc1)[C@@H](C)c1ccccc1)[C@@H](C)c1ccccc1 [TM8] (H-[NDecylGly][Nlys][Nspe][Nspe][Nlys][Nspe][Nspe]-NH2)
A: 3.5

Q: What value of MIC of peptidomimetics has been recorded for this entry: C[C@@H](c1ccccc1)N(CC(N)=O)C(=O)CN(C(=O)CN(CCCCN)C(=O)CN(C(=O)CN(C(=O)CN(CCCCN)C(=O)CN(C(=O)CN(C(=O)CN(CCCCN)C(=O)CN(C(=O)CN(C(=O)CNCCCCN)[C@@H](C)c1ccccc1)[C@@H](C)c1ccccc1)[C@@H](C)c1ccccc1)[C@@H](C)c1ccccc1)[C@@H](C)c1ccccc1)[C@@H](C)c1ccccc1)[C@@H](C)c1ccccc1 [TM1] (H-[Nlys][Nspe][Nspe][Nlys][Nspe][Nspe][Nlys][Nspe][Nspe][Nlys][Nspe][Nspe]-NH2)
A: 2.1

Q: What value of MIC of peptidomimetics has been recorded for this entry: C[C@@H](c1ccc(Br)cc1)N(CC(N)=O)C(=O)CN(C(=O)CN(CCCCN)C(=O)CN(C(=O)CN(C(=O)CNCCCCN)[C@@H](C)c1ccccc1)[C@@H](C)c1ccc(Br)cc1)[C@@H](C)c1ccccc1 [TM2] (H-[Nlys][Nspe][Nspe(4-Br)][Nlys][Nspe][Nspe(4-Br)]-NH2)
A: 29.0

Data provenance is paper PMC11879280.
